# SYSTEM: D(4) dopamine receptor (Homo sapiens, UniProt P21917)
# Sequence (P21917 whole entry): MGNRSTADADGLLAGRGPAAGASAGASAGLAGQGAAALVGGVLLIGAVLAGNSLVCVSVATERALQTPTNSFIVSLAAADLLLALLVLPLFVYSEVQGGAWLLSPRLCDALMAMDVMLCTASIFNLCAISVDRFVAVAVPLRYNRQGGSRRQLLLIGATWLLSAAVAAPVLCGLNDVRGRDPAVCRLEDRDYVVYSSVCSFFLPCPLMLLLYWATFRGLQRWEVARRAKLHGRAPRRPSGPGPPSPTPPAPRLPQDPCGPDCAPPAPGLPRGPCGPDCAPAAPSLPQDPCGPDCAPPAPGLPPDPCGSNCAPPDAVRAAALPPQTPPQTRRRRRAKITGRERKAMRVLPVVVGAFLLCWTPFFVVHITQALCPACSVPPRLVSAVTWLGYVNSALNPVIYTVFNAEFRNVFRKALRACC
# EXPERIMENT_SUMMARY: Activity at human recombinant D4.4 receptor expressed in HEK293 cells by FLIPR assay
PROPERTY_LABEL: EC50 (nM)
Could you give me the number in nM? Just the number is fine.

COMPOUND	SYSTEM	EC50 / nM
CO/N=C(/CCN1CCN(c2ccccn2)CC1)c1ccccc1Cl	D(4) dopamine receptor (Homo sapiens, UniProt P21917)	57.2

For the compound shown here, CO/N=C(/CCN1CCN(c2ccccn2)CC1C)c1ccc(Cl)cc1 (centres undefined) , give the reported EC50. 99

Try the compound "N#Cc1cccc(/C(CCN2CCN(c3ccccn3)CC2)=N/O)c1" 13.1

Try the compound "CO/N=C(/CCN1CCN(c2ccccn2)CC1)c1ccc(F)c(Cl)c1" 95

----------
# SYSTEM: D(2) dopamine receptor (Homo sapiens, UniProt P14416)
# Sequence (P14416 whole entry): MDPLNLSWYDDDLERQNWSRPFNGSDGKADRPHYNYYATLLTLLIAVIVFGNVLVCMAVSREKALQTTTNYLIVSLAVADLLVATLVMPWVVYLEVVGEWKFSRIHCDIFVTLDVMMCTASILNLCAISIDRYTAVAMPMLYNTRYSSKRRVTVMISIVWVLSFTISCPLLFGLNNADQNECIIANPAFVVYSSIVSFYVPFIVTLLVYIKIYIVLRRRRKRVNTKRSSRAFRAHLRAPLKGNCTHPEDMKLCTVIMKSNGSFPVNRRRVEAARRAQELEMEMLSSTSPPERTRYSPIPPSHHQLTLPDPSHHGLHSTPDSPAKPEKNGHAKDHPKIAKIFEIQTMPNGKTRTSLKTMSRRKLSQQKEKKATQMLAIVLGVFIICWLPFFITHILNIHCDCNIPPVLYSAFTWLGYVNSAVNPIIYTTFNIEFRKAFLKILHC
# EXPERIMENT_SUMMARY: Displacement of [125I]PIPAT from human recombinant D2L receptor expressed in HEK293 cells
PROPERTY_LABEL: Ki (nM)
Could you give me the number in nM? Just the number is fine.

Illustrative cases are given below, each with its answer.
COMPOUND	PROPERTY_LABEL	UNIT_ABBREVIATION	VALUE_REPORTED
CO/N=C(\CCN1CCN(c2ccccn2)CC1)c1ccc(Cl)cc1	Ki	nM	63.8
CO/N=C(/CCN1CCN(c2ccccn2)CC1)c1cccc(C)c1	Ki	nM	68
CO/N=C(\CCN1CCN(c2ccccn2)CC1)c1ccc(C)c(C)c1	Ki	nM	137
CO/N=C(\CCN1CCN(c2ccccn2)CC1)c1cccc(F)c1	Ki	nM	101
CO/N=C(/c1ccc(Cl)cc1)C(C)CN1CCN(c2ccccn2)CC1 (configuration not stated)	Ki	nM	146

For the compound shown here, CO/N=C(/c1ccc(Cl)cc1)C(CNOC)CN1CCN(c2ccccn2)CC1 (configuration not stated) , give the reported Ki. 164

Try the compound "CO/N=C(\CCN1CCN(c2ccccn2)CC1)c1ccc(Cl)c(Cl)c1" 64.5

Try the compound CO/N=C(\CCN1CCN(c2ccccn2)CC1C)c1ccc(Cl)cc1 (configuration not stated) 76.5

Try the compound "CO/N=C(\CCN1CCN(c2ccccn2)CC1)c1cccc(Cl)c1" 98.7

Try the compound "CO/N=C(\CCN1CCN(c2ccccn2)CC1)c1cc(F)cc(F)c1" 132

Try the compound "CO/N=C(\CCN1CCN(c2ccccn2)CC1)c1cccc(C)c1" 68.4

Try the compound "N#CCO/N=C(\CCN1CCN(c2ccccn2)CC1)c1ccccc1" 140
